TARGET_ENTITY: HLA-DRB1*0701 (Homo sapiens, UniProt P01903+P01911, A100R/A102G/A103Q/D57E/D86V/E43K/F76Y/K127E/L162R/M171V/P40G/Q125H/Q99D/R33Q/R42Y/R54Q/S133A/S66F/T210M/V115G/Y107V/Y59L/Y89S)
METHOD: biochemical
Format: binding
APPLIED_CONDITIONS: 24 h, read-out: Binding percentage
Ends that are not written are not given here.
Label scheme for inhibition at 250 µM: lower than 80% is N, 80% and above is Y.

Please review the following examples before continuing.
BIOPOLYMER_SEQUENCE	DISCRETE_LABEL
NYEIYIASSSNIYLM [compound 39046]	Y
KLKYIFKRRKTMKKK [compound 39151]	N
TPIIVKYDNTHAKNR [compound 39048]	N

Query :: Entry LKPFYSLETMLMANS [compound 39147] : is its inhibition at 250 µM no less than 80%?
Result :: Y

Query :: In plain terms: is recorded inhibition at 250 µM at least 80% for DKSFISEANSFRNEE [compound 39149] ?
Result :: N

Query :: hey, is inhibition at 250 µM for this one >= 80%? QTAFRKFFKKIISLG [compound 39150]
Result :: N
